# Tested on: P. falciparum male gametocytes
# experiment_notes: P. falciparum Dual Gamete Formation Assay (PfDGFA), male readout (exflagellation)
# Format: cell-based, Plasmodium falciparum NF54
# stated_conditions: PfDGFA at 2µM, 24h preincubation with gametocytes prior to induction of gametogenesis; replicate R1
value_type: % inhibition male (individual replicates) R1 (%)
Your answer is read as %, so omit the unit and give the number.

# example entries with known answers
INSERT INTO assay_data (molecule, reading) VALUES
  ('O=C(COc1ccccc1)N(Cc1ccc(-c2ccc(CNC3Cc4ccccc4C3)cc2)cc1)C1CCNCC1.O=C(O)C(F)(F)F', 15.3),
  ('CNCCNCc1ccc(-c2cccc(-c3nc4cc(F)ccc4[nH]3)c2)cc1.O=C(O)C(F)(F)F', -5.6),
  ('COCCOc1nc(N)nc2ncc(Cc3cc(OC)ccc3OC)c(C)c12', 18.4),
  ('CC1(C)N=C(N)N=C(N)N1c1ccc(Cl)c(Cl)c1.Cl', 8.4),
  ('COc1ccc(Cc2c(N)nc3nc(N)nc(N)c3c2C)cc1.Cl', 17.1);

Dear colleague, please send me the reported % inhibition male (individual replicates) R1 for CCCCCN1CCCC1CNS(=O)(=O)c1cccc(C(=O)Nc2cccc(C#N)c2)c1.O=C(O)C(F)(F)F (centres unmarked) when you can. -0.3

Read the entry `CS(=O)(=O)CCNCc1ccc(-c2ccc3c(Nc4ccc(Cl)cc4F)ccnc3c2)o1` and write its reported % inhibition male (individual replicates) R1. -15.4

Indicate the recorded % inhibition male (individual replicates) R1 value for this molecule: `Nc1nc(N)c2c(ccc3c2ccn3CCCCO)n1` 21.0
